- assay-procedure: chemical genetic growth profiling, strain panel (AID 1159580);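 further: tested at 20 µM; growth read once vehicle control cultures reached saturation at 30 °C; 1 = growth at the plate median or of vehicle wells; lower values mean less growth of the strain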
- experimental-setup: S. cerevisiae deletion strains, growth OD, locus YFR010W, strain ubp6, hits give low values
Among all 5,500 compounds or so, about 2,000 (36%) were called active. Not shown: some 18% with an inconclusive outcome. Some of the results follow.
reported-property: normalized growth
Keep it simple and answer with nothing but the number.

• CCOC(=O)c1ccc(N)cc1 = 1.02

Now let's try a different one.
Query :: Fill blank: measured normalized growth of the compound CC(=O)O[C@H]1CC[C@@]2(C)C(=CCC3C2CC[C@@]2(C)C3CC[C@@H]2C(C)CCCC(C)C)C1 (some centres undefined) is ____.
Result :: 0.986

###

Reported normalized growth values for a set of compounds
- assay-procedure: chemical genetic growth profiling, strain panel (AID 1159580)
- experimental-setup: S. cerevisiae deletion strains, growth OD, locus YER002W, strain NOP16, hits give low values
Out of some 5,500 compounds screened, about 2,000 (36%) were called active. Another 18% or so got no clear call; they are omitted. Some of the results follow.
Answer with a bare number; do not write a unit.

// worked examples, normalized growth included
- O=c1cc(O)cc(/C=C/c2ccc(O)c(O)c2)o1: 0.999
- CCC(CO)NC(=O)C1C=C2c3cccc4c3c(cn4C)CC2N(C)C1 (stereo unspecified): 0.998
- Brc1c(NC2=NCCN2)ccc2nccnc12: 1.01

Query :: What value of measured normalized growth is listed for NC(N)=NOCCC(N)C(=O)O (stereo unspecified) ?
Result :: 0.98

Query :: Requested read-out: normalized growth. Entry: CCOC(=O)Nc1ccc(NCc2ccc(F)cc2)nc1N
Result :: 1

Query :: Entry N.N.N.N.N.N.N.N.N.N.N.N.N.N.O.O.[Ru+4].[Ru+5].[Ru+5] has what normalized growth?
Result :: 0.155

###

- assay-procedure: chemical genetic growth profiling, strain panel (AID 1159580)
- experimental-setup: S. cerevisiae deletion strains, growth OD, locus YLR058C, strain SHM2, hits give low values
Among all 5,500 compounds or so, about 2,000 (36%) were called active. Roughly 18% stayed inconclusive and do not appear here. The list shows a part of the results.
Parameter normalized growth: see the listing below.

Check out these entries, answers already filled in.
• COc1c(C2COc3cc4c(cc3C2=O)CC(O)C(C)(C)O4)ccc2c1CCC(C)(C)O2 (configuration not stated) = 1.02 (inactive)
• CCOC(=O)c1ccc(N)cc1 = 0.999 (inactive)
• CCOP(=S)(OCC)SCSP(=S)(OCC)OCC = 0.982 (inactive)
• Nc1nc2ncc(CNc3ccc(C(=O)N[C@@H](CCC(=O)O)C(=O)O)cc3)nc2c(=O)[nH]1 = 0.991 (inactive)
• OCC(S)CS (configuration not stated) = 0.984 (inactive)

Query :: Would you mind telling me what normalized growth value was observed for O=c1cccc2n1C[C@H]1CNCC2C1 ?
Result :: 1.01 (inactive)

Query :: Would you kindly share the measured normalized growth for COc1c(C(=O)O)ccc2c1CCC(C)(C)O2 ?
Result :: 1.04 (inactive)

Query :: # normalized growth lookup, item CC1(C)C2CC(=O)O[C@@]3(C)C4=CC(=O)O[C@@H](c5ccoc5)[C@]4(C)CCC3[C@@]2(C)C=C[C@H]1O (some centres not stated)
Result :: 1.01 (inactive)

Query :: Value lookup for normalized growth; key = NCCCCN=C(N)N
Result :: 1.01 (inactive)

Query :: Suppose we examine the compound CCOP(=S)(OCC)SCCSCC ; what normalized growth value has been reported?
Result :: 0.972 (inactive)

Query :: Fill in the blank: the reported normalized growth of CCOP(=S)(OCC)SCSCC is ____.
Result :: 1.01 (inactive)

Query :: Return reported normalized growth; argument: COc1ccc(C[C@H](N)C(=O)N[C@@H]2[C@@H](CO)OC(n3cnc4c(N(C)C)ncnc43)[C@@H]2O)cc1 (some centres not stated)
Result :: 1.01 (inactive)

###

normalized growth listing for selected molecules.
- assay-procedure: chemical genetic growth profiling, strain panel (AID 1159580)
- experimental-setup: S. cerevisiae deletion strains, growth OD, locus YDR162C, strain NBP2, hits give low values
In all, about 5,500 compounds went through this assay and about 2,000 (36%) were called active. Roughly 18% stayed inconclusive and do not appear here. This is one part of the list.
No unit in the answer, only the number.

• C[C@@H]1C[C@@H]([C@H](O)CC2CC(=O)NC(=O)C2)C(=O)[C@@H](C)C1 = 0.0524
• Nc1nc2ncc(CNc3ccc(C(=O)N[C@@H](CCC(=O)O)C(=O)O)cc3)nc2c(=O)[nH]1 = 1.02
• C[C@@H]1CC2C3CCC4=CC(=O)C=C[C@]4(C)[C@@]3(F)[C@@H](O)C[C@]2(C)[C@@]1(O)C(=O)COP(=O)(O)O (some centres undefined) = 1.02
• Nc1nc2c(c(=O)[nH]1)N(C=O)C(CNc1ccc(C(=O)N[C@@H](CCC(=O)O)C(=O)O)cc1)CN2 (some centres undefined) = 1
• COc1cc2c3cc1Oc1cc(ccc1O)OC1c4c(cc(OC)c(O)c4Oc4ccc(cc4)CC3N(C)CC2)CCN1C (centres undefined) = 1.01
• CCOC(=O)CCCCCCCCCCCCC1C=CCC1 (centres undefined) = 0.0522
• CN(Cc1cnc2nc(N)nc(N)c2n1)c1ccc(C(=O)NC(CCC(=O)O)C(=O)O)cc1 (centres undefined) = 0.982
• Nc1nc(N)c2nc(CNc3ccc(C(=O)NC(CCC(=O)O)C(=O)O)cc3)cnc2n1 (centres undefined) = 0.993

Query :: Suppose we examine the molecule O=C(O)CCCCC1SCC2NC(=O)NC21 (centres undefined) ; what normalized growth value has been reported?
Result :: 1.01

###

- assay-procedure: chemical genetic growth profiling, strain panel (AID 1159580);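 further: tested at 20 µM; growth read once vehicle control cultures reached saturation at 30 °C; 1 = growth at the plate median or of vehicle wells; lower values mean less growth of the strain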
- experimental-setup: S. cerevisiae deletion strains, growth OD, locus YDR054C, strain cdc34, hits give low values
Out of some 5,500 compounds screened, about 2,000 (36%) were called active. Another 18% or so got no clear call; they are omitted. The list shows a part of the results.
// reported normalized growth for each item listed
Just the number.

Look over these answered cases.
- CC12CC[C@@H](O)CC1=CC[C@@H]1C2CCC2(C)C(=O)CC[C@@H]12 (stereo partly drawn): 1.01
- O=C(Nc1ccc(Cl)cc1Cl)c1cnccc1C(F)(F)F: 0.977

--- query ---
Query :: Which normalized growth value belongs to N/C(=N/OC(=O)c1ccc(Cl)cc1)c1ccc(F)cc1F ?
Result :: 0.871

###

- assay-procedure: chemical genetic growth profiling, strain panel (AID 1159580);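 further: tested at 20 µM; growth read once vehicle control cultures reached saturation at 30 °C; 1 = growth at the plate median or of vehicle wells; lower values mean less growth of the strain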
- experimental-setup: S. cerevisiae deletion strains, growth OD, locus YGR092W, strain DBF2, hits give low values
Screen size: about 5,500 compounds; about 2,000 (36%) were called active. About 18% were inconclusive and are not listed. The list shows a part of the results.
reported-property: normalized growth
Please state the value as a number alone, without comment.

• Clc1ccc(-c2noc(CSC3=NCCN3)n2)cc1 = 0.955
• COc1ccccc1NC(=O)Nc1nn(C)c2cccc(OC)c12 = 0.81
• N=C(N)SCc1nc(-c2ccc(Cl)cc2)no1 = 0.987
• O=C(NCc1ccco1)c1csc(C2COc3ccccc3O2)n1 (configuration not stated) = 0.154
• CN(C)/C=C/C(=O)c1ccc(C#Cc2ccccc2)cc1 = 1.01

Query :: Quick one: normalized growth of CCCCCCCC1CCC/C1=N/OC(=O)c1cccs1 (configuration not stated) ?
Result :: 0.906

Query :: What does the data say about its normalized growth? Entry: COc1cc(C(=O)Oc2c(Cl)cc(Cl)cc2C=Nc2cccc([N+](=O)[O-])c2)cc(OC)c1OC
Result :: 0.336

###

- assay-procedure: chemical genetic growth profiling, strain panel (AID 1159580);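 further: tested at 20 µM; growth read once vehicle control cultures reached saturation at 30 °C; 1 = growth at the plate median or of vehicle wells; lower values mean less growth of the strain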
- experimental-setup: S. cerevisiae deletion strains, growth OD, locus YCL061C, strain MRC1 (second series), hits give low values
The campaign covered roughly 5,500 compounds. About 2,000 (36%) were called active. Another 18% or so got no clear call; they are omitted. The list shows a part of the results.
reported-property: normalized growth
// no unit string in output, number only

For orientation, consider the following solved cases.
• COc1ccccc1NC(=O)Nc1nc(-c2cccnc2)nc2ccccc12 = 1
• CCCN(CCC)CCc1cccc2c1CC(=O)N2 = 0.997
• CCCNC(C)C(=O)Nc1ccccc1C (configuration not stated) = 1.01
• N=C(N)SCCc1cccc(CCSC(=N)N)c1 = 0.984

Query :: Need normalized growth, item O=C1N=C(O)CN1/N=C\c1ccc(-c2ccc([N+](=O)[O-])cc2)o1
Result :: 1.01

Query :: What does the record list as normalized growth for O=C(c1ccc2c(c1)OCCO2)N1CCCCC1 ?
Result :: 0.991

Query :: Give the measured normalized growth of CNC(CC(=O)O)C(=O)O (configuration not stated) .
Result :: 1.02
